# targetOfAssay: Hypoxia-inducible factor 1-alpha (Homo sapiens) (UniProt Q16665)
# Sequence (Q16665 whole entry, looked up): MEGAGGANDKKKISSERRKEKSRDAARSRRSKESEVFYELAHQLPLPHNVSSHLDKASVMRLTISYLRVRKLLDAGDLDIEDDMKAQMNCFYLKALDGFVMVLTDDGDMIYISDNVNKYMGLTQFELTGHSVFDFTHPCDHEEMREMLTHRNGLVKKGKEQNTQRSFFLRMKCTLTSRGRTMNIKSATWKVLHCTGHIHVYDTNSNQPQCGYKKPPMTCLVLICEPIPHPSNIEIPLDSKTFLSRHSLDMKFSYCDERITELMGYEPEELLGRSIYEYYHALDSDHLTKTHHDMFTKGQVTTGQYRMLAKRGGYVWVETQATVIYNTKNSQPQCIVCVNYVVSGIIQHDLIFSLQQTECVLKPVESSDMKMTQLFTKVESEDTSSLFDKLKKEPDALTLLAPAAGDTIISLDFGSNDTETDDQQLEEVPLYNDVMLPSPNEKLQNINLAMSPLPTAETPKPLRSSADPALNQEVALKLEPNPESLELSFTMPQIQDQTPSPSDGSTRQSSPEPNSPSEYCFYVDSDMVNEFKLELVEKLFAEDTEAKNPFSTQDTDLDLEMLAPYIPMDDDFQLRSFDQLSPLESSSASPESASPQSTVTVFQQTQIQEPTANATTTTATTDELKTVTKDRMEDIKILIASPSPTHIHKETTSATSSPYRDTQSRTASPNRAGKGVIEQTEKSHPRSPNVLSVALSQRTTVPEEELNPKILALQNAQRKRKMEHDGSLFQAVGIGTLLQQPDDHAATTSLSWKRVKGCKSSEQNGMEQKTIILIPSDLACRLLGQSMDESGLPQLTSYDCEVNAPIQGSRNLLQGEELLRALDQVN
# protocolText: activators of HIF1alpha nuclear accumulation, confirmation, imaging, fluorescence, U2OS GFP-HIF1alpha (AID 434951)
# conditionSet: U2OS GFP-HIF1alpha nuclear intensity, high-content imaging
The source made the active and inactive calls.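 Rule for the calls: active = a fitted half-maximal concentration EC50 for the rise in nuclear signal no higher than ten times the top dose tested; inconclusive = flat fit with activity between 30% and 70%, or unusable fit; inactive = EC50 beyond ten times the top dose.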
Labels: 1 for active, 0 for inactive

compound	targetOfAssay	categoryLabel
CCC(=O)NC(c1ccc(OC)cc1)c1cc(Cl)c2cccnc2c1O (stereo unspecified)	Hypoxia-inducible factor 1-alpha (Homo sapiens) (UniProt Q16665)	1
Cc1ccc(C(=O)NC2CC3CCCC(C2)N3Cc2ccccc2)cc1 (stereo unspecified)	Hypoxia-inducible factor 1-alpha (Homo sapiens) (UniProt Q16665)	0
CC[n+]1c(S(=O)(=O)[O-])ccc2ccc(C)cc21	Hypoxia-inducible factor 1-alpha (Homo sapiens) (UniProt Q16665)	0
CC(C(=O)N1CCOCC1)N1c2cccc3cccc(c23)S1(=O)=O (stereo unspecified)	Hypoxia-inducible factor 1-alpha (Homo sapiens) (UniProt Q16665)	0
O=C(CN1C(=O)COc2ccc(Cl)cc21)Nc1ccc2c(c1)OCCO2	Hypoxia-inducible factor 1-alpha (Homo sapiens) (UniProt Q16665)	0
C=CCSc1cc(C)nc2c(-c3ccccc3)cnn12	Hypoxia-inducible factor 1-alpha (Homo sapiens) (UniProt Q16665)	0
COc1ccc(Nc2nc(N/N=C/c3ccc(N(C)C)cc3)nc(C)c2[N+](=O)[O-])cc1	Hypoxia-inducible factor 1-alpha (Homo sapiens) (UniProt Q16665)	0
COc1ccc(C(CC(=O)NCc2ccccc2)Sc2n[nH]c(-c3ccccc3)n2)cc1 (stereo unspecified)	Hypoxia-inducible factor 1-alpha (Homo sapiens) (UniProt Q16665)	1
Cc1cccc(N2CCN(c3ccc(N4C(=O)CCCC4=O)cc3[N+](=O)[O-])CC2C)c1 (stereo unspecified)	Hypoxia-inducible factor 1-alpha (Homo sapiens) (UniProt Q16665)	0
O=C(CSc1c[nH]c2ccccc12)NCc1ccc2c(c1)OCO2	Hypoxia-inducible factor 1-alpha (Homo sapiens) (UniProt Q16665)	0
Cc1oc(-c2ccc(Cl)cc2)cc1C(=O)/C(C#N)=C/Nc1cccc(OC(F)(F)F)c1	Hypoxia-inducible factor 1-alpha (Homo sapiens) (UniProt Q16665)	0
Cc1ccc2c(c1)cc(C(=O)NCc1ccccc1)n2C	Hypoxia-inducible factor 1-alpha (Homo sapiens) (UniProt Q16665)	0
COc1ccc(-n2c(C)csc2=S)cc1	Hypoxia-inducible factor 1-alpha (Homo sapiens) (UniProt Q16665)	0
CCc1ccc(NC(=O)CSc2ccc(-c3ccccn3)nn2)cc1	Hypoxia-inducible factor 1-alpha (Homo sapiens) (UniProt Q16665)	1
COc1cccc(C(=O)C2CCCN(Cc3ccc4nsnc4c3)C2)c1 (stereo unspecified)	Hypoxia-inducible factor 1-alpha (Homo sapiens) (UniProt Q16665)	0
COc1ccc2ccccc2c1/C=N/Nc1cccc(C(=O)O)c1	Hypoxia-inducible factor 1-alpha (Homo sapiens) (UniProt Q16665)	0
CCN(CC)S(=O)(=O)c1ccc(N/N=C/c2ccc(O)cc2O)nc1	Hypoxia-inducible factor 1-alpha (Homo sapiens) (UniProt Q16665)	1
COC(=O)C(NC(=O)c1c(C)nn(C)c1Cl)c1ccccc1 (stereo unspecified)	Hypoxia-inducible factor 1-alpha (Homo sapiens) (UniProt Q16665)	0
Clc1ccc(CSc2ccc(-c3ccccn3)nn2)cc1	Hypoxia-inducible factor 1-alpha (Homo sapiens) (UniProt Q16665)	1
CN1CCN(Cc2nc3ccccc3c(=O)n2Cc2nc(-c3ccccc3F)cs2)CC1	Hypoxia-inducible factor 1-alpha (Homo sapiens) (UniProt Q16665)	1
COc1cc(C(=O)N/N=C(\c2ccccc2)c2ccccn2)cc(OC)c1OC	Hypoxia-inducible factor 1-alpha (Homo sapiens) (UniProt Q16665)	1
O=C(CN1CCCC1)N/N=C/c1c(O)ccc2ccccc12	Hypoxia-inducible factor 1-alpha (Homo sapiens) (UniProt Q16665)	1
Cc1ccc(Oc2ncc(CN3CC(C)OC(C)C3)s2)cc1 (stereo unspecified)	Hypoxia-inducible factor 1-alpha (Homo sapiens) (UniProt Q16665)	0
O=C(CN(Cc1ccc(F)cc1)C(=O)CCC(=O)Nc1nccs1)NCC1CCCO1 (stereo unspecified)	Hypoxia-inducible factor 1-alpha (Homo sapiens) (UniProt Q16665)	0
Fc1cccc(/C=N/Nc2nccnc2Cl)c1	Hypoxia-inducible factor 1-alpha (Homo sapiens) (UniProt Q16665)	0
CN(C1CCCC1)C1CCN(C(=S)Nc2cc(F)cc(F)c2)CC1	Hypoxia-inducible factor 1-alpha (Homo sapiens) (UniProt Q16665)	0
O=C(CCCCCCC(=O)Nc1ccccc1)NO	Hypoxia-inducible factor 1-alpha (Homo sapiens) (UniProt Q16665)	1
CN(CC(=O)Nc1ccccc1Oc1ccccc1)Cc1ccccc1F	Hypoxia-inducible factor 1-alpha (Homo sapiens) (UniProt Q16665)	0
CN1CCC2(CC1)N=C(c1ccc(F)cc1)C(=S)N2C(=O)c1ccc(C(C)(C)C)cc1	Hypoxia-inducible factor 1-alpha (Homo sapiens) (UniProt Q16665)	0
Oc1ccccc1/C=N/Nc1nc2ccccc2o1	Hypoxia-inducible factor 1-alpha (Homo sapiens) (UniProt Q16665)	1
O=C(CSCC(=O)Nc1ccccc1)N/N=C/c1c(O)ccc2ccccc12	Hypoxia-inducible factor 1-alpha (Homo sapiens) (UniProt Q16665)	1
COc1cccc(CN2CCC(N(CCc3ccccc3)Cc3ccccc3)CC2)c1OC	Hypoxia-inducible factor 1-alpha (Homo sapiens) (UniProt Q16665)	0
COc1ccc(CNS(=O)(=O)c2cc3c4c(c2)C(C)C(=O)N4CCC3)cc1 (stereo unspecified)	Hypoxia-inducible factor 1-alpha (Homo sapiens) (UniProt Q16665)	0
CC(=O)NC(c1ccc(C)cc1)c1cc(Cl)c2cccnc2c1O (stereo unspecified)	Hypoxia-inducible factor 1-alpha (Homo sapiens) (UniProt Q16665)	1
Cc1ccc(-c2cc(C(=O)Nc3cccnc3)[nH]n2)c(O)c1C	Hypoxia-inducible factor 1-alpha (Homo sapiens) (UniProt Q16665)	0
COc1cc(SC)ccc1C(=O)NCCc1ccccc1	Hypoxia-inducible factor 1-alpha (Homo sapiens) (UniProt Q16665)	0
Cc1ccc(/C=N/NC(=O)c2ccc(Br)o2)s1	Hypoxia-inducible factor 1-alpha (Homo sapiens) (UniProt Q16665)	0
Oc1[nH]c2ccc(Br)cc2c1N=NC(=S)N1CCOCC1	Hypoxia-inducible factor 1-alpha (Homo sapiens) (UniProt Q16665)	1
O=Cc1cc(N=Nc2ccccc2Cl)ccc1O	Hypoxia-inducible factor 1-alpha (Homo sapiens) (UniProt Q16665)	0
Cc1cccc(NC(=S)N2CCC(N(C)CC3CCCO3)CC2)c1 (stereo unspecified)	Hypoxia-inducible factor 1-alpha (Homo sapiens) (UniProt Q16665)	0
CCOC(=O)c1c(NS(=O)(=O)c2ccccc2)n(CCCOC)c2nc3ccccc3nc12	Hypoxia-inducible factor 1-alpha (Homo sapiens) (UniProt Q16665)	0
COc1ccccc1OCc1nnc(SCC(=O)NCc2ccco2)n1-c1ccccc1	Hypoxia-inducible factor 1-alpha (Homo sapiens) (UniProt Q16665)	0
NS(=O)(=O)c1ccc(NC(=O)c2ccc(CSc3ccccc3)o2)cc1	Hypoxia-inducible factor 1-alpha (Homo sapiens) (UniProt Q16665)	0
COc1ccccc1CNC(=O)c1cccc(NC(=O)c2ccccc2)c1	Hypoxia-inducible factor 1-alpha (Homo sapiens) (UniProt Q16665)	0
O=[N+]([O-])c1ccc(N/N=C/c2ccccc2O)cc1	Hypoxia-inducible factor 1-alpha (Homo sapiens) (UniProt Q16665)	0
O=C(N/N=C(\c1ccccc1)c1ccccn1)c1ccccc1Cl	Hypoxia-inducible factor 1-alpha (Homo sapiens) (UniProt Q16665)	1

Source of measurements: PubChem BioAssay AID434951
